- System: SF-268 CNS
- assay-explanation: NCI-60 one-dose screen, 48 h (100 = growth as untreated, 0 = no growth, -100 = all killed)
- measurement-context: 10 µM unless noted
This is part of a sample that, as a whole, favours compounds with a hit. Of some 83,000 tested, about 20% had one in any assay.
growth listing for selected molecules.
test-readout: growth (%)

[[record]]
molecule_smiles = "CCc1c(C)c2cc3nc(NCc4ccccc4)oc3c(C)c2oc1=O"
test_readout = "growth"
assay_value = 65.9

[[record]]
molecule_smiles = "O=C(Nc1ccc(-n2cc(-c3ccncc3)c(-c3ccc(O)c(Cl)c3)n2)cc1)c1ccc(Cl)c(C(F)(F)F)c1"
test_readout = "growth"
assay_value = 38

[[record]]
molecule_smiles = "C=CC(=O)Nc1cccc(Nc2nc(Nc3ccc(OCCOC(F)F)cc3)ncc2F)c1"
test_readout = "growth"
assay_value = 40.5

[[record]]
molecule_smiles = "O=C(C[n+]1cccc(Br)c1)c1ccc2c(c1)CCCC2"
test_readout = "growth"
assay_value = 103

[[record]]
molecule_smiles = "O=C1C(Cl)=C(Nc2ccccc2)C(=O)C(Cl)=C1Nc1ccccc1"
test_readout = "growth"
assay_value = 105


* * *

- Tested on: SR leukemia
- assay-explanation: NCI-60 one-dose screen, 48 h (100 = growth as untreated, 0 = no growth, -100 = all killed)
- measurement-context: 10 µM unless noted
About 83,000 compounds went through this panel and 20% of them were active in at least one assay; those are over-represented in the sample as a whole.
Entries and their growth values follow.
test-readout: growth (%)

[[record]]
molecule = "FC(F)(F)c1cn(CC2CNC2)c2ncnc(Cl)c12"
unit_name = "%"
assay_value = 87

[[record]]
molecule = "CCN(CC)c1ccc(C2CC(c3cc(OC)c(OC)c(OC)c3)=NN2)cc1 (stereo not given)"
unit_name = "%"
assay_value = -10.8

[[record]]
molecule = "CS(=O)(=O)OCC(COS(C)(=O)=O)C(c1ccccc1)c1ccccc1"
unit_name = "%"
assay_value = 74.7

[[record]]
molecule = "CC12CCC3C(CCC4CC(O)CCC43C)C1C/C(=C/O)C(=O)O2 (stereo not given)"
unit_name = "%"
assay_value = 96.1

[[record]]
molecule = "O=C(Cn1c2ccccc2c2ccncc21)N/N=C\\c1ccc2ccccc2c1"
unit_name = "%"
assay_value = 33.5

[[record]]
molecule = "Nc1ncc(-c2ccc3ncnc(Nc4ccc(F)c(Cl)c4)c3c2)cn1"
unit_name = "%"
assay_value = -35.1

[[record]]
molecule = "CC(C(C(=O)N1CCCCC1)N1CCCCC1)N1CCCCC1 (stereo not given)"
unit_name = "%"
assay_value = 71.3

[[record]]
molecule = "COc1cc(-c2nc3sc(C)cn3c2/C=C2\\C(=O)Nc3ccccc32)c(Br)c(OC)c1OC"
unit_name = "%"
assay_value = 3.87

[[record]]
molecule = "O=C(Nc1ccc(-n2ccc3c(NC(=O)c4ccccc4)nccc32)cc1)c1ccc(Cl)c(C(F)(F)F)c1"
unit_name = "%"
assay_value = -28.7

[[record]]
molecule = "CN(C)CCS(=O)(=O)Nc1cc(-c2ccc3ncnc(Nc4ccc(F)c(Cl)c4)c3c2)cnc1Cl"
unit_name = "%"
assay_value = -29.1


* * *

- System: MALME-3M melanoma
- assay-explanation: NCI-60 one-dose screen, 48 h
- measurement-context: 10 µM unless noted
Compounds without any hit were thinned out: in the full panel of roughly 83,000, 20% have a hit. Active and inactive are the calls of the source. How the source made its calls: active means growth percent below 10; inactive means the rest.
Outcome codes: active, inactive

[[record]]
compound = "CCOC(=O)c1cnc2c(OC)ccc(OC)c2c1Cl"
label_class = "inactive"

[[record]]
compound = "Nc1nc(Cl)c2c(C(F)(F)F)cn(CC3CCNCC3)c2n1"
label_class = "inactive"

[[record]]
compound = "COc1ccc(/C=N/C2=NNC(C)(c3ccccc3O)N2C(Cc2c[nH]c3ccccc23)C(=O)O)cc1 (stereo not drawn)"
label_class = "inactive"

[[record]]
compound = "O=C(Nc1ccc(Cl)c(Cl)c1)Nc1ccc(Cl)c([N+](=O)[O-])c1"
label_class = "active"

[[record]]
compound = "O=C1c2ccccc2OC=C(c2ccccc2)N1CCCCN1CCCCC1"
label_class = "inactive"

[[record]]
compound = "CC1OC(n2c3ccccc3c3c4c(c5c6ccccc6[nH]c5c32)C(=O)N(CCN[C@@H]2CCC[C@H]2N)C4=O)CC(O)C1O (stereo partly drawn)"
label_class = "inactive"

[[record]]
compound = "O=C(Nc1ccc(-n2cc(-c3ccncc3)c(-c3ccc(O)c(Cl)c3)n2)cc1)c1cc(C(F)(F)F)cc(C(F)(F)F)c1"
label_class = "inactive"

[[record]]
compound = "C=C(C)[C@@H]1C/C=C(\\COC(=O)[C@H](OC(C)=O)C(NC(=O)c2ccccc2)c2ccccc2)CC[C@H]2O[C@]2(C)CC/C=C(\\C)CC1 (stereo partly drawn)"
label_class = "inactive"

[[record]]
compound = "C[C@]12O[C@H]1[C@H](O)c1c(cc(O)c3c1C(=O)c1cccc(O)c1-3)C2=O"
label_class = "inactive"

[[record]]
compound = "CC(=O)O[C@@H]1[C@@H](OC(C)=O)[C@H](OC(C)=O)CO[C@H]1Nc1cccc2ccccc12"
label_class = "inactive"

[[record]]
compound = "CCOC(=O)C1CN(Cc2ccccc2)C(=O)C1=O (stereo not drawn)"
label_class = "inactive"

[[record]]
compound = "COc1ccc(C[C@H](N)C(=O)N[C@@H]2[C@@H](CO)OC(n3cnc4c(N(C)C)ncnc43)[C@@H]2O)cc1 (stereo partly drawn)"
label_class = "active"

[[record]]
compound = "CCc1c2cc(Cl)ccc2n2cc(Cc3ccccc3)[nH]c(=O)c12"
label_class = "inactive"

[[record]]
compound = "COc1ccc(-c2nnc(SCC(=O)N3CCN(c4cc5c(cc4F)c(=O)c(C(=O)O)cn5C4CC4)CC3)o2)cc1OC"
label_class = "inactive"

[[record]]
compound = "S=C=NP1(N=C=S)=NP(N=C=S)(N=C=S)=NP(N=C=S)(N=C=S)=NP(N=C=S)(N=C=S)=N1 (stereo not drawn)"
label_class = "inactive"

[[record]]
compound = "CCCC(=O)Oc1ccc(/C(=C(\\C)c2ccc(Cl)cc2)c2ccc(OCCN(CC)CC)cc2)cc1"
label_class = "active"

[[record]]
compound = "C=C1C(=O)O[C@H]2[C@H]1CC/C(COC(=O)c1cccc3ccccc13)=C\\CC[C@@]1(C)O[C@@H]21"
label_class = "active"

[[record]]
compound = "Cc1[nH]c2ccc(F)cc2c1CCNC(=O)C1CCN(C(=O)c2ccc(-c3ccccc3)cc2)CC1"
label_class = "inactive"


* * *

- System: HT29 colon
- assay-explanation: NCI-60 one-dose screen, 48 h
- measurement-context: 10 µM unless noted
This is part of a sample that, as a whole, favours compounds with a hit. Of some 83,000 tested, about 20% had one in any assay. Activity calls are given as the source filed them. How the source made its calls: active means growth percent below 10; inactive means the rest.
Labels: YES for active, NO for inactive

[[record]]
compound = "O=C(Nc1ccccc1Cl)c1c[nH]c(=O)c(-c2ccc(N3CCCOC4(CC4)C3)cc2)c1"
label_class = "NO"

[[record]]
compound = "Cc1cc2nc(-c3c(N)ncc(C#N)c3-c3ccc(Cl)cc3)[nH]c2cc1C"
label_class = "NO"

[[record]]
compound = "CC(C)(C)C(=O)Nc1nc2c(s1)CCc1ccn(S(=O)(=O)c3ccccc3)c1-2"
label_class = "NO"

[[record]]
compound = "Nc1nc(-c2cc3c(cc2Cl)NC(=O)/C3=C/c2ccc(Cl)cc2)cs1"
label_class = "NO"

[[record]]
compound = "COc1ccc2c(c1)OC(N)=C(C#N)C2c1ccc(F)c(F)c1 (stereo unspecified)"
label_class = "YES"

[[record]]
compound = "Cc1cc(C)c(O)c(C(=O)CC(Br)C(=O)O)c1 (stereo unspecified)"
label_class = "NO"

[[record]]
compound = "O=C(Nc1ccc(-n2cc(-c3ccncc3)c(-c3ccc(O)c(Cl)c3)n2)cc1)Nc1cc(C(F)(F)F)cc(C(F)(F)F)c1"
label_class = "NO"

[[record]]
compound = "COc1ccc(-c2nnc(SCC(=O)Nc3ccc(C(=O)/C=C/c4ccccc4)cc3)o2)cc1OC"
label_class = "NO"

[[record]]
compound = "CC12CCC3C(CCC4CC(O)CCC43C)C1C/C(=C/O)C(=O)O2 (stereo unspecified)"
label_class = "NO"

[[record]]
compound = "Cc1cc(NCCN(C(C)C)C(C)C)nc(/N=C(\\N)Nc2ccc(Cl)c(C(F)(F)F)c2)n1"
label_class = "YES"

[[record]]
compound = "COc1ccc(CCNC=O)cc1OC"
label_class = "NO"

[[record]]
compound = "COc1cc(NS(C)(=O)=O)ccc1Cc1c2ccccc2nc2ccccc12"
label_class = "YES"

[[record]]
compound = "O=C(Nc1ccc(-n2ccc3c(NC(=O)c4ccccc4)nccc32)cc1)c1cccc(C(F)(F)F)c1"
label_class = "YES"

[[record]]
compound = "CCc1c(C)c2cc(-n3c(-c4ccc(OC)cc4)csc3=N)c(O)c(C)c2oc1=O"
label_class = "YES"

[[record]]
compound = "Nc1nc(=S)ss1"
label_class = "NO"

[[record]]
compound = "COc1cc2c(/C=C3/C(=O)Nc4ccc(O)cc43)c(Cl)n(Cc3cc(OC)c(OC)c(OC)c3)c2cc1C"
label_class = "NO"

[[record]]
compound = "CC1(C)Cc2c(Br)c(Br)c(Br)c(OCC(O)CN3CCN(c4ccccn4)CC3)c2O1 (stereo unspecified)"
label_class = "NO"

[[record]]
compound = "O=C(NCCNc1nccc(-c2c(-c3cccc(O)c3)nc3sccn23)n1)Nc1cc(C(F)(F)F)cc(C(F)(F)F)c1"
label_class = "NO"

[[record]]
compound = "COC(OC)C1(c2ccccc2)NC(=O)NC1=O (stereo unspecified)"
label_class = "NO"

[[record]]
compound = "COc1ccc(N)c(S)c1"
label_class = "NO"

[[record]]
compound = "COC(=O)c1oc2c(C(C)=O)c(OCCN3CCCCC3)ccc2c1C"
label_class = "NO"


Cited source: PubChem BioAssay (NCI)
